- measured-on: 5-HT2C (Homo sapiens (Human), UniProt P28335)
- Sequence (P28335 whole entry, looked up): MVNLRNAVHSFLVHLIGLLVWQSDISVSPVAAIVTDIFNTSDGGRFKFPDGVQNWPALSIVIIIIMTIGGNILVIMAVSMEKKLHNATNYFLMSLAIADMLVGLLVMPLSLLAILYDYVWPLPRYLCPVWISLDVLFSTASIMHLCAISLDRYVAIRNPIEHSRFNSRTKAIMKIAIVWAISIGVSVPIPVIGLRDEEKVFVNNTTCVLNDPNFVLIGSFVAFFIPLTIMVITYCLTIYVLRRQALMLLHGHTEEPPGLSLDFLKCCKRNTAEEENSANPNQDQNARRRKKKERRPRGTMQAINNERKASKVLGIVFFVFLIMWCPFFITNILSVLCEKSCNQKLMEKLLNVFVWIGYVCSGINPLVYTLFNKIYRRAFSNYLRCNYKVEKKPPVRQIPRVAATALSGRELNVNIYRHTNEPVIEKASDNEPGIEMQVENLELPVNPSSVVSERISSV
- protocol-text: 5-HT2C Gq-mediated calcium flux functional assay
- Format: cell-based
- measurement-parameters: IA = Inactive; N=1-3
Label Criterion not met if 5-HT2C-Ca2+ FLUX Emax (% 5-HT) falls below 80 % 5-HT; label Criterion met in every other case.

>  <compound>
C=CCN(CCc1c[nH]c2ccc(F)cc12)C(C)C

>  <qualitative-label>
Criterion met

$$$$

In: Does the compound `CN1CCC[C@@H]1Cc1c[nH]c2ccc(F)cc12` have recorded 5-HT2C-Ca2+ FLUX Emax (% 5-HT) that is 80 % 5-HT or more?
Out: Criterion met

In: Consider next the compound `CCCN(C)CCc1c[nH]c2ccc(F)cc12` in the same way.
Out: Criterion met

In: Repeat with `CCN(CCc1c[nH]c2ccc(F)cc12)C(C)C`
Out: Criterion met

In: Then this compound: `CCN(CCc1c[nH]c2ccc(F)cc12)C1CCC1`
Out: Criterion met

In: Do the same for C=CCN(CCc1c[nH]c2ccc(F)cc12)C(C)CC (stereo not shown) please
Out: Criterion met

In: Same read-out for `CN(C)CCc1c[nH]c2ccc(F)cc12` ?
Out: Criterion met

In: What do you have for `CCCN(CCc1c[nH]c2ccc(F)cc12)C(C)C` ?
Out: Criterion not met

Values from patent US20240286998A1
